Where these numbers come from: patent US8673929B2

- Test Name: CC50 assay in the anti-HCV replicon assay (CellTiter-Glo)
- Assay type: cell-based, human
- Condition Info: human, Huh-7 hepatoma cells harbouring an HCV replicon; Huh-7 HCV replicon cells, 3 days incubation, CellTiter-Glo luminescence
Measurement Name: CC50 at 3 days

Query: State its CC50 at 3 days: `CCOc1nc(NCc2ccc(S(N)(=O)=O)cc2)nc2ccc(-c3ccc(F)c(NS(=O)(=O)C4CC4)c3)cc12`
Result: < 10 µM

Query: Tell us which CC50 at 3 days value is on record for `Nc1nc(OCC2CCC2)c2cc(-c3ccn[nH]3)ccc2n1`
Result: 10 to 20 µM

Query: // fetch CC50 at 3 days given entry `Nc1nc(OCCN2CCOCC2)c2cc(-c3cc4ccccc4o3)ccc2n1`
Result: 10 to 20 µM

Query: Look up CC50 at 3 days of `COCCOc1nc(N)nc2ccc(-c3cc4ccccc4o3)cc12` and report it.
Result: 10 to 20 µM

Query: # return recorded CC50 at 3 days for input `CCOc1nc(NCc2ccc(S(N)(=O)=O)cc2)nc2ccc(-c3ccc(NC(N)=O)cc3)cc12`
Result: < 10 µM

Query: Report CC50 at 3 days for `CC(C)Oc1nc(N)nc2ccc(-c3ccc(C(=O)NC4CCCCC4)cc3)cc12`
Result: < 10 µM

Query: Identify CC50 at 3 days associated with the molecule `CC(C)Oc1ncnc2ccc(-c3ccc(F)cc3)cc12`
Result: > 20 µM

Query: Output CC50 at 3 days of `N#Cc1ccc(-c2ccc3nc(N)nc(OCC4CCC4)c3c2)cc1`
Result: > 20 µM

Query: Look up and report measured CC50 at 3 days for this entry: `CC(C)Oc1nc(N)nc2ccc(-c3ccc(OC(F)(F)F)cc3)cc12`
Result: > 20 µM
